# Tested on: A498 renal
# test_details: NCI-60 one-dose screen, 48 h
# test_settings: 10 µM
About 83,000 compounds went through this panel and 20% of them were active in at least one assay; those are over-represented in the sample as a whole. The source made the active and inactive calls. The calls were made as follows: active = growth percent below 10; inactive = the rest.
Respond only with the outcome that fits, drawn from 1 (active), -1 (inactive)

Reference set, count: 6
molecule: Cn1c([N+](=O)[O-])cnc1/C=C1\Oc2cc(Cl)ccc2C1=O
label: -1

molecule: COc1cc(-c2cc(/C=C3\C(=O)Nc4ccc(Cl)cc43)[nH]n2)cc(OC)c1OC
label: -1

molecule: COC(=O)c1c(-c2ccccc2)csc1NC(=O)c1c(-c2ccccc2)noc1C
label: -1

molecule: COc1cc(NC(=O)c2sc3nc4c(cc3c2N)C(O)CCC4)cc(OC)c1 (stereo not given)
label: -1

molecule: CCOC(=O)C1(CC(C)C)CCOC1=O (stereo not given)
label: -1

molecule: CCC(=O)N1C/C(=C/c2ccc(Cl)cc2)C(=O)/C(=C/c2ccc(Cl)cc2)C1
label: 1

### Prompt Fill in: this test's call for Cc1ccc(C(=O)N2C/C(=C/c3ccc(F)cc3)C(=O)/C(=C/c3ccc(F)cc3)C2)cc1 is ___
### Response -1

### Prompt Fill in: this test's call for NC(=O)SCC(=O)Nc1ccc(S(N)(=O)=O)cc1 is ___
### Response -1

### Prompt Fill in: this test's call for O=C1NC(=O)N(Cc2ccccc2)CC1Br (stereo not given) is ___
### Response -1

### Prompt Fill in: this test's call for FC(F)(F)c1ccc2nc(-c3nc(-c4ccccc4)n4ccccc34)[nH]c2c1 is ___
### Response -1

----------
The entries below are paired with their reported growth.
# Tested on: U251 CNS
# test_details: NCI-60 one-dose screen, 48 h (100 = growth as untreated, 0 = no growth, -100 = all killed)
# test_settings: 10 µM
Compounds without any hit were thinned out: in the full panel of roughly 83,000, 20% have a hit.
Just the number in %, nothing appended.

smiles_entry: O=C(O)c1ccc(Cl)cc1Nc1ccc(F)cc1
unit_string: %
growth: 52.3
//
smiles_entry: O=C(Nc1ccncc1)C(=O)c1cn(S(=O)(=O)c2cccc3ccccc23)c2ccccc12
unit_string: %
growth: 80.7
//
smiles_entry: COc1ccc(C(=O)/C=C/c2cc(-c3cc(OC)c(OC)c(OC)c3)n[nH]2)cc1
unit_string: %
growth: -2.19
//
smiles_entry: O=C(Nc1ccncc1)C(=O)c1cn(S(=O)(=O)c2cccc(Cl)c2)c2ccccc12
unit_string: %
growth: 61.2

With U251 CNS as the test system, CN(C)Cc1cn(-c2ncc(-c3ccc(C(F)(F)F)cc3)c(NC3CCCCCC3)n2)nn1 showed growth of 73.3

----------
# Tested on: UACC-62 melanoma
# test_details: NCI-60 one-dose screen, 48 h (100 = growth as untreated, 0 = no growth, -100 = all killed)
# test_settings: 10 µM
This is part of a sample that, as a whole, favours compounds with a hit. Of some 83,000 tested, about 20% had one in any assay.
Group membership follows growth per the scheme bottom end: < 40%; midrange: ≥ 40% and < 90%; top end: ≥ 90%

Reference set, count: 8
compound: CCOC(=O)CNC(=O)CCCCSc1ncnc2nc[nH]c12
label: top end

compound: FC(F)(F)c1ccc(-c2cnc(Cl)nc2N2CCC3(CC2)OCCO3)cc1
label: top end

compound: CSc1nn(-c2ccccc2)c2ncnc(Oc3ccccc3)c12
label: top end

compound: CCOC(=O)N/N=C\C(C)=N\NC(=O)OCC
label: top end

compound: NC1(C(=O)O)CSSC1
label: top end

compound: CO/N=C(/C(=O)NC1C(=O)N2C(C(=O)O)=C(COC(N)=O)CSC12)c1ccco1 (stereo unspecified)
label: top end

compound: O=C(Nc1nc(-c2ccccc2Cl)cs1)c1cc(-c2ccc(Cl)cc2)nc2ccc(Cl)cc12
label: bottom end

compound: Cc1ccc(C(=O)Nc2cccc(F)c2)cc1NC(=O)C1(c2ncnc3[nH]ccc23)CC1
label: midrange

### Prompt For this compound, which bin applies? O=C1c2ccc3c4c(ccc(c24)C(=O)N1CCNCc1ccccc1)C(=O)N(CCNCc1ccccc1)C3=O
### Response bottom end

### Prompt For this compound, which bin applies? O=C(CCCCCCC(=O)Nc1cccnc1)NO
### Response bottom end

### Prompt For this compound, which bin applies? O=C(Nc1cccc(-n2cc(-c3ccncc3)c(-c3ccc(O)c(Cl)c3)n2)c1)c1cccc(C(F)(F)F)c1
### Response bottom end

### Prompt For this compound, which bin applies? COC(=O)C1(C)Cc2cc(OC(C)=O)c(OC(C)=O)cc2N1 (stereo unspecified)
### Response midrange

### Prompt For this compound, which bin applies? CCN1CCC(CCOC)(CN2c3ccccc3Sc3ccc(Cl)cc32)C1 (stereo unspecified)
### Response bottom end

### Prompt For this compound, which bin applies? Nc1c(C(=O)Nc2cccc(F)c2)sc2nc3c(cc12)C(=O)CCC3
### Response midrange

### Prompt For this compound, which bin applies? N=C(N)c1ccc(-c2ccc(-c3ccco3)o2)cc1
### Response top end

### Prompt For this compound, which bin applies? CC(C)=CCc1ccc(O)c(=O)cc1C(C)C
### Response bottom end

### Prompt For this compound, which bin applies? O=C(O)CN1C(=O)c2cccc3cccc(c23)C1=O
### Response top end

### Prompt For this compound, which bin applies? COc1cc(-c2nc(Nc3nc4ccccc4s3)[nH]c(=O)c2C#N)cc(OC)c1O
### Response top end

### Prompt For this compound, which bin applies? COc1ccc(/C=C2/CN(C(=O)c3ccccc3F)C/C(=C\c3ccc(OC)cc3)C2=O)cc1
### Response midrange

### Prompt For this compound, which bin applies? CN(C)CCN1C(=O)c2cccc3c(-c4ccc5ncn(C6CCCCC6)c5c4)ccc(c23)C1=O
### Response bottom end

### Prompt For this compound, which bin applies? Cc1cc(C)c(CCc2cc(C)c(C)cc2C)cc1C
### Response top end

### Prompt For this compound, which bin applies? COc1ccc(/C=C2/CN(C(=O)c3ccc(C)cc3)C/C(=C\c3ccc(OC)cc3)C2=O)cc1
### Response midrange

### Prompt For this compound, which bin applies? CC12O[C@H](C[C@@H](OC(=O)c3ccccc3)[C@H]1O)n1c3ccccc3c3c4c(c5c6ccccc6n2c5c31)C(=O)NC4=O
### Response midrange

### Prompt For this compound, which bin applies? O=C(CSSCC(=O)c1ccc(Cl)cc1)c1ccc(Cl)cc1
### Response midrange

### Prompt For this compound, which bin applies? O=S(=O)(Nc1ccccn1)c1ccc(N=Nc2ccc(O)c3ncccc23)cc1
### Response bottom end

### Prompt For this compound, which bin applies? COc1cc(/C=C2\CCCC3=C2N=C2SC=NN2C3c2cc(OC)c(OC)c(OC)c2)cc(OC)c1OC (stereo unspecified)
### Response bottom end

### Prompt For this compound, which bin applies? COc1ccc(-c2nc(-c3nc4ccc(OC)cc4[nH]3)cc3c2[nH]c2ccccc23)cc1
### Response midrange

### Prompt For this compound, which bin applies? COc1ccc(S(=O)(=O)NCCCNc2nccc(-c3c(-c4ccc(F)cc4)nc4sccn34)n2)cc1
### Response midrange

### Prompt For this compound, which bin applies? O=C1Nc2ccc(Cl)cc2/C1=C\c1c(-c2ccc(Cl)cc2)nc2sc(C3CC3)nn12
### Response bottom end
